All values here come from patent US20250197513A1.

Target: T1, recombinant OSMR protein (Sino Biologicals, 11226-H08H), extracellular domain of OSMR (UniProt Q99650 28-740)
T1 construct: extracellular domain; also called OSMR antigen
T1 sequence (looked up): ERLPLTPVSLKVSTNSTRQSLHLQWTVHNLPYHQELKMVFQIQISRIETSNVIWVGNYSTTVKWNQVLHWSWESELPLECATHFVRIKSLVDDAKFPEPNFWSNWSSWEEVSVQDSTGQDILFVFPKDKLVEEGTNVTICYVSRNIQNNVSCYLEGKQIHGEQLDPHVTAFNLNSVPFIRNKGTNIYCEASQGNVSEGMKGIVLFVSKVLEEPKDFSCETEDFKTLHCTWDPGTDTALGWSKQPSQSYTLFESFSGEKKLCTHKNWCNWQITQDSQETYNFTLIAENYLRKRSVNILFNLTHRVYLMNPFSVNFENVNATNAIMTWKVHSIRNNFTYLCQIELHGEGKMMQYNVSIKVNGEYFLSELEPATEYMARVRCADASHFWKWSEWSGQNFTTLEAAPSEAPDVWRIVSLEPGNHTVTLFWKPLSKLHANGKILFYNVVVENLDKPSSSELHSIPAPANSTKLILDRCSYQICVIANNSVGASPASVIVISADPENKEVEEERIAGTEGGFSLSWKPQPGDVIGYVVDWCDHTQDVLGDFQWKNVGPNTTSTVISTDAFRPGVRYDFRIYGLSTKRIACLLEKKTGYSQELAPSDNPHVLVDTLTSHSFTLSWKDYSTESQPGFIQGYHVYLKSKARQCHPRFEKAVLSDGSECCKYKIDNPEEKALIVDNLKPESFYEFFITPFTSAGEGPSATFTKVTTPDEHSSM
Assay: screening of full-length IgG1 clones on recombinant OSMR extracellular domain

{"binder": "B07 monoclonal antibody (antibody, V domains shown, also called B07 mAb) VH: QVQLVESGGGVVRPGGSLRLSCAASGFTFDDYGMSWVRQAPGKGLEWVSGINWNGGSTGYADSVKGRFTISRDNAKNSLYLQMNSLRAEDTALYHCARVNYDSSGLRGAFDIWGQGTMVTVSS VL: NIQMTQSPSSLSASVGDRVTITCQASQYISNSLNWYQQKPGKAPNLLLYDATNLEPGVPSRFSGSGSRTDFTLTISSLQPEDIATYYCQQYHNLPPTFGQGTRLEIK", "binding result": "binds"}
{"binder": "B04 monoclonal antibody (antibody, V domains shown, also called B04 mAb) VH: EVQLVQSGGGVVQPGRSLRLSCAASGFTFSSYAMHWVRQAPGKGLEWVAVISYDGSNKYYADSVKGRFTISRDNSKNTLYLQMNSLRAEDTAVYYCARESGVSGDYYYYGMDVWGQGTMVTVSS VL: AIQLTQSPSSLSASVGDRVTITCQASQDIKNYLNWYQQRPGKAPKLLIYDASNLETGVPSRFSGGGSGTDFTFTISSLQPEDIATYYCQHYDSLPITFGQGTRLEIK", "binding result": "binds"}
